procedure-summary: protein stability index of a GFP-peptide fusion (yeast GPS) (PSI 1-4); higher = more stable; sorted into four equal gates, so the index is relative within each strain
assay-conditions: san1∆
Classification field: enter Condition met for protein stability index values not below 3, Condition not met for values below it.

Examples with answers:
KGGSLYGLGLIYAGFGR [RPN2]    Condition not met
QWFEAHYGQTLGKKKNV [RPS8A]    Condition not met

protein stability index >= 3 for YLQETAISGKKTTYYYY [RPC82] ?
Condition not met

Given the entry PFETFDHASIRRGYQVY [CYT1] , answer whether its protein stability index meets or surpasses 3.
Condition not met

Item AFEELEGSWDRGIPRIS [PRP8] with protein stability index of 3 or above?
Condition met

Textbook exercise: given the entry KKWKKYWQYKAGIPIGL [SWP82] , state whether its protein stability index is greater than or equal to 3.
Condition not met

Please check the record NGKDNNNESNKNNNGDE [MED2] and state if its protein stability index is at or above 3.
Condition met

State whether the measured protein stability index reaches 3, counting equality as reaching it, for KDMKLLRYYKNIWLNNK [NUT1]
Condition not met

Check if protein stability index >= 3 (inclusive). Item: STELNNKQYELFMKSLI [SWI1]
Condition met

Hello, I need to know if ERVRNFAVIYLCDIDEV [DIB1] has measured protein stability index not below 3. Thanks!
Condition not met

Confirm if protein stability index reported for the sequence AYGVLDSNYKWDLSVED [PRE2] is 3 or above.
Condition met

Does protein stability index meet or surpass 3 for SYNWGAKAKRRHTTGTG [RPL37A] ?
Condition met

Hi team, for FRVQSQSNYGIYSSDAQ [NUT1] , is the recorded protein stability index at or above 3?
Condition not met

Given SSPYAAMLAAQDVAAKC [RPS14B] , state whether its protein stability index is at least 3.
Condition not met

API: above_or_equal(metric=protein stability index, cutoff=3) for item RKDTVSREVLRYEEFAD [RPC40]
Condition met

Is the recorded value of protein stability index equal to or greater than 3 for this sequence? EGDFLKSIIGKLTAERA [POP1]
Condition not met

Check if protein stability index >= 3 (inclusive). Item: SIIQSKQDCVDWFTYSY [BRR2]
Condition not met

Could you please find out whether ANLEDIIFEIEKPLVVP [RRP6] has protein stability index that meets 3 or exceeds it?
Condition not met

Record YPLWVMAKQLIRLANES [CSN12] ; criterion: protein stability index no lower than 3. Met?
Condition not met
